target: ligand binding domain of human ROR gamma (Homo sapiens); construct: NM_001001523; expressed in transfected cells; host or cells: HEK293T; experiment: ROR gamma reporter gene assay (GAL4-RORγ LBD luciferase, Dual-Glo); format: cell-based; conditions: HEK293T cells transfected with pM-ROR gamma, 8 concentrations 3.5 nM to 10.5 μM, 24 h incubation; read-out: result (pIC50, inhibition of RORγ transcriptional activity) (converted)
Kindly apply the following: 1 if IC50 is less than 100000 pM, 0 in every other case.

Decide: IC50 of CC(C)(C)CN(CC(=O)c1c(Cl)cc(Cl)cc1Cl)C(=O)c1cnn([C@H]2CC[C@](C)(C(=O)O)CC2)c1C(F)(F)F [Example 221] strictly below 100000 pM? 1

Decide: IC50 of COc1cccc(Cl)c1C(=O)CN(Cc1cc(F)cc(F)c1)C(=O)c1cnn([C@H]2CC[C@H](C(=O)O)CC2)c1C(F)(F)F [Example 54] strictly below 100000 pM? 1

Decide: IC50 of CC1(C)[C@@H]2C[C@H](N(CC(=O)c3c(Cl)cccc3Cl)C(=O)c3cnn([C@H]4CC[C@](C)(C(=O)O)CC4)c3C3CC3)C[C@@H]21 [Example 385] strictly below 100000 pM? 1

Decide: IC50 of NC(=O)[C@H]1CC[C@H](n2ncc(C(=O)N(CC(=O)c3c(Cl)cncc3Cl)Cc3ccc(F)cc3)c2C(F)(F)F)CC1 [Example 88] strictly below 100000 pM? 1

Decide: IC50 of CC(C)CC1(N(CC(=O)c2c(Cl)cncc2Cl)C(=O)c2cnn([C@H]3CC[C@](C)(C(=O)O)CC3)c2C(F)(F)F)CC1 [Example 319] strictly below 100000 pM? 0

Decide: IC50 of O=C(CN(Cc1ccc(F)cc1)C(=O)c1cnn([C@H]2CC[C@H](C(=O)NCCO)CC2)c1C(F)(F)F)c1c(Cl)cncc1Cl [Example 89] strictly below 100000 pM? 0

====

biological target: ligand binding domain of human ROR gamma (Homo sapiens, UniProt P51449); construct: NM_001001523; expressed in transfected cells; host or cells: HEK293T; experiment: ROR gamma reporter gene assay (GAL4-RORγ LBD luciferase, Dual-Glo); type: cell-based; conditions: HEK293T cells transfected with pM-ROR gamma, 8 concentrations 3.5 nM to 10.5 μM, 24 h incubation; read-out: result (pIC50, inhibition of RORγ transcriptional activity) (converted)
Sequence (P51449 268-518): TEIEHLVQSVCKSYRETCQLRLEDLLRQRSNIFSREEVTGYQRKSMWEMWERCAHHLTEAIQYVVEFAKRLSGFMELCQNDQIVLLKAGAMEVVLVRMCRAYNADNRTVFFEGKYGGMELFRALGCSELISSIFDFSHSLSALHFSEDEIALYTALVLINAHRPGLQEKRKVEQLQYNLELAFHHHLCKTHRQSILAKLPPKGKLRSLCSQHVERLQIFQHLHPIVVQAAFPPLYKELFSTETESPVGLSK
Measurement Type: IC50 (pM)
Give bare numbers, in pM.

[[record]]
compound = "CC1(C)CCC(N(CC(=O)c2c(Cl)cc(F)cc2Cl)C(=O)c2cnn([C@H]3CC[C@@](C)(C(=O)O)CC3)c2C(F)(F)F)CC1"
measured_target = "ligand binding domain of human ROR gamma (Homo sapiens, UniProt P51449)"
meas_value = 186000

[[record]]
compound = "C[C@]1(C(=O)O)CC[C@H](n2ncc(C(=O)N(CC(=O)c3c(Cl)cccc3C(F)(F)F)CC3(F)CCCC3)c2C(F)(F)F)CC1"
measured_target = "ligand binding domain of human ROR gamma (Homo sapiens, UniProt P51449)"
meas_value = 16200


For every record below, what is its IC50?
1. O=C(CN(Cc1ccc(F)cc1)C(=O)c1cnn([C@H]2CC[C@](O)(C(=O)O)CC2)c1C(F)(F)F)c1c(Cl)cncc1Cl
2. CC1(C)CCC(N(CC(=O)c2c(Cl)cncc2Cl)C(=O)c2cnn([C@H]3CC[C@](C)(C(=O)O)CC3)c2C(F)(F)F)CO1 (some centres unmarked)
3. CC1(C)CCC(N(CC(=O)c2c(Cl)cc(Cl)cc2Cl)C(=O)c2cnn(C34CCC(C(=O)O)(CC3)CC4)c2C(F)(F)F)CC1
4. O=C(CN(CC1CC2(CC2)C1)C(=O)c1cnn([C@H]2CC[C@H](C(=O)O)CC2)c1C(F)(F)F)c1c(Cl)cncc1Cl
5. O=C(CN(Cc1ccc(F)cc1)C(=O)c1cnn([C@H]2CC[C@@H](C(=O)O)CC2)c1C(F)(F)F)c1c(Cl)cncc1Cl
6. C[C@]1(C(=O)O)CC[C@H](n2ncc(C(=O)N(CC(=O)c3c(Cl)cccc3C(F)(F)F)CC3CC4(CC4)C3)c2C(F)(F)F)CC1

1. 204000
2. 380000
3. 10700
4. 15800
5. 263000
6. 13200

====

Record form. Attribute: IC50. Fill in for each entry.
molecular target: human RORγ-LBD (Homo sapiens, UniProt P51449); construct: made in house; host or cells: E. coli (BL-21); test: ROR gamma coactivator peptide recruitment Alphascreen assay (RORγ-LBD binding to GRIP1 coactivator peptide); type: biochemical; settings: 5 nM human RORγ-LBD, 30 nM 7-β-hydroxycholesterol, 50 nM biotinylated GRIP1 coactivator peptide, overnight incubation at room temperature; read-out: result (pIC50, RORγ coactivator peptide recruitment Alphascreen assay) (converted)
Sequence (P51449 262-518): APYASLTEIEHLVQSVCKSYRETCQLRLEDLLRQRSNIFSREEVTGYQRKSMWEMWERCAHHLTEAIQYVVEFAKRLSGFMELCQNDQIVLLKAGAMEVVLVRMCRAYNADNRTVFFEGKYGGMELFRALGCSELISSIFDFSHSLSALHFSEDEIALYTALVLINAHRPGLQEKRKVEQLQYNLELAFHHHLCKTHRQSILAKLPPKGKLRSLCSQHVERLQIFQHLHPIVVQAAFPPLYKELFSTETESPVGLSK
One number for each entry, in nM.

Answered cases to consult:
[[record]]
compound = "C[C@]1(C(=O)O)CC[C@H](n2ncc(C(=O)N(CC(=O)c3c(Cl)cncc3Cl)[C@H]3C[C@@H]4CC[C@H]3C4)c2C(F)(F)F)CC1 [Example 677]"
measurement_type = "IC50"
meas_value = 5.62

[[record]]
compound = "O=C(c1cnn([C@H]2CC[C@H](C(=O)O)CC2)c1C(F)(F)F)N(CCc1ccccc1)Cc1ccc(Cl)cc1 [Example 502]"
measurement_type = "IC50"
meas_value = 275

[[record]]
compound = "O=C(CN(C(=O)c1cnn([C@H]2CC[C@@H](C(=O)O)CC2)c1C(F)(F)F)[C@@H]1CCC12CCC2)c1c(Cl)cccc1Cl [Example 640]"
measurement_type = "IC50"
meas_value = 776

[[record]]
compound = "CC1(CN(CC(=O)c2c(Cl)cccc2Cl)C(=O)c2cnn([C@H]3CC[C@](C)(C(=O)O)CC3)c2C(F)(F)F)CCC1 [Example 760]"
measurement_type = "IC50"
meas_value = 2.4

[[record]]
compound = "Cc1cc(Cl)c(C(=O)CN(CC2CCCCC2)C(=O)c2cnn([C@H]3CC[C@](C)(C(=O)O)CC3)c2C(F)(F)F)c(Cl)n1 [Example 801]"
measurement_type = "IC50"
meas_value = 8.51


Checklist item: IC50 tested on human RORγ-LBD (Homo sapiens, UniProt P51449), entry CC1(C)CCC(N(CC(=O)c2c(Cl)cccc2Cl)C(=O)c2cnn([C@H]3CC[C@H](C(=O)O)CC3)c2C(F)(F)F)CC1 [Example 525] , value? 5.89

====

target: human RORγ-LBD (Homo sapiens); construct: made in house; host or cells: E. coli (BL-21); assay: ROR gamma coactivator peptide recruitment Alphascreen assay (RORγ-LBD binding to GRIP1 coactivator peptide); type: biochemical; details: 5 nM human RORγ-LBD, 30 nM 7-β-hydroxycholesterol, 50 nM biotinylated GRIP1 coactivator peptide, overnight incubation at room temperature; read-out: result (pIC50, RORγ coactivator peptide recruitment Alphascreen assay) (converted)
Reported IC50 maps to class as: lower segment (below 3 nM), middle segment (3 nM to below 10 nM), upper segment (10 nM or more)

Sort C[C@]1(C(=O)O)CC[C@H](n2ncc(C(=O)N(CC(=O)c3c(Cl)cccc3Cl)CC3(F)CC3)c2C(F)(F)F)CC1 into one of the categories. middle segment

Sort CC1(C)CC(N(CC(=O)c2c(Cl)cccc2Cl)C(=O)c2cnn([C@H]3CC[C@@H](C(=O)O)CC3)c2C(F)(F)F)C1 into one of the categories. upper segment

Sort CC(C)(C)CN(CC(=O)c1c(Cl)cccc1Cl)C(=O)c1cnn([C@H]2CC[C@H](C(=O)O)CC2)c1C(F)(F)F into one of the categories. middle segment

Sort C[C@H]1C[C@H](n2ncc(C(=O)N(CC(=O)c3c(Cl)cncc3Cl)C[C@@H]3CCC(C)(C)O3)c2C(F)(F)F)CCC1C(=O)O (stereo in doubt) into one of the categories. upper segment

Sort C[C@@H]1C[C@@H](n2ncc(C(=O)N(CC(=O)c3c(Cl)cccc3Cl)CC3(C)CCC3)c2C(F)(F)F)CC[C@@H]1C(=O)O into one of the categories. lower segment

Sort Cc1cc(Cl)c(C(=O)CN(CC2CCCCC2)C(=O)c2cnn([C@H]3CC[C@](C)(C(=O)O)CC3)c2C(F)(F)F)c(Cl)c1 into one of the categories. lower segment

Sort Cc1cc(Cl)c(C(=O)CN(Cc2ccc(C(F)(F)F)cc2)C(=O)c2cnn([C@H]3CC[C@H](C(=O)O)CC3)c2C(F)(F)F)c(Cl)c1 into one of the categories. middle segment

Sort CC1(C)CC(CN(CCc2c(Cl)cncc2Cl)C(=O)c2cnn([C@H]3CC[C@H](C(=O)O)CC3)c2C(F)(F)F)C1 into one of the categories. lower segment

Sort CC(C)(C)CN(CCc1c(Cl)cncc1Cl)C(=O)c1cnn([C@H]2CC[C@H](C(=O)O)CC2)c1C(F)(F)F into one of the categories. upper segment

Sort C[C@H](C(=O)O)[C@H]1C[C@H](n2ncc(C(=O)N(CC(=O)c3c(Cl)cccc3Cl)[C@H]3C[C@@H]4[C@H](C3)C4(C)C)c2C(F)(F)F)C1 into one of the categories. middle segment

Sort C[C@]1(C(=O)O)CC[C@H](n2ncc(C(=O)N(CC(=O)c3c(Cl)cncc3Cl)CC3CCCCC3)c2C(F)(F)F)CC1 into one of the categories. lower segment
